experimental-system: L-type voltage sensitive calcium channels (3H-D888 binding site)
experimental-protocol: 3H-D-888 binding to rat brain cortical membranes
run-parameters: 1 nM 3H-D888, rat cortical membranes, 60 minutes at 25° C.; in vitro selectivity test
pIC50: −log10 of the molar value.
measurement-name: pIC50

For the molecule shown here, CN1CCCN([C@H]2CCSc3ccccc32)CC1 [Example 5] , give the reported pIC50.
~4.82

Taken from patent US6407093B1.
